These data points were gathered from paper PMC9352680.

# measured-on: T1, PUF4 RNA-binding domain (Saccharomyces cerevisiae, UniProt P25339 537-888)
# T1 sequence: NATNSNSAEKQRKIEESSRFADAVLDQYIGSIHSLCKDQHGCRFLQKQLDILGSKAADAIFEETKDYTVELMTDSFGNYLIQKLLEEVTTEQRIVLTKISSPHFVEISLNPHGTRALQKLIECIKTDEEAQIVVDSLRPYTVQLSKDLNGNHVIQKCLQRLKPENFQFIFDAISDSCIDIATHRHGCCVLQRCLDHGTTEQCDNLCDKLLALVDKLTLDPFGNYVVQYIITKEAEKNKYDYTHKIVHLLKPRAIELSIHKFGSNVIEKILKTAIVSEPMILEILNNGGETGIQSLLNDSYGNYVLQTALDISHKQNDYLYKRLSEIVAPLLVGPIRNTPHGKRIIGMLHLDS
# procedure-details: Mg; RNA-MaP; 20 mM Na-HEPES pH 7.4, 30 mM KOAc, 0.75 mM MgCl2, 0.1% Tween-20, 5% glycerol, 0.1 mg/mL BSA, 2 mM DTT; 25 C; 0.0125-409.6 nM protein
# recorded-conditions: tags: N-His6-TEV cleaved; C-SNAP kept, Cy3B-labelled; label: tethered on chip by stalled RNA polymerase
pKd: −log10 of the molar value.
# thresholds on pKd define classes: zone 1 (below 6), zone 2 (6 to below 8), zone 3 (8 or more)

Previously resolved entries follow.
{"columns": ["binder", "group"],
 "data": [
  ["UCUCUUAAUAUAUAUAGCUCUCUU (ssRNA) [Id_ii_S1_P3E.3_K3.2_C3.2_[C-2A]_[T-1A]_H3.2_A3.1_F3.1_T3.2_[T9G]_[A10C]]", "zone 2"],
  ["UCUCUUCGUGUAUAUAUAUCUCUU (ssRNA) [Id_ii_S1_P3E.2_K3.1_C3.2_[T-1G]_H3.1_A3.1_F3.1_T3.2]", "zone 3"],
  ["ACAAACGAUAUAUAUAAUACAAAC (ssRNA) [Id_ii_S3_P3E.3_K3.2_C3.2_[C-2G]_[T-1A]_H3.2_A3.1_F3.1_T3.2_[T9A]_[A10T]]", "zone 2"],
  ["ACAAACACACACUAUAUUACAAAC (ssRNA) [Id_ii_S3_P3E.4_K3.3_C3.2_[C-2A]_[T-1C]_H3.3_A3.1_F3.1_T3.2_[A10T]]", "zone 1"],
  ["UCUCUUUGACACUAUAAAUCUCUU (ssRNA) [Id_ii_S1_P3E.4_K3.3_C3.2_[C-2T]_[T-1G]_H3.3_A3.1_F3.1_T3.2_[T9A]]", "zone 1"]
]}

Assign a category based on measured pKd for Ie_S2_P3E.2_K3.1_C3.2_H3.1_[+3CTCT]_A3.1_F3.1_T3.2 (ssRNA) RNA: UUUGAUUAAUAUGAUAUCGUUCUUUCUCUUGUCUCUAUAUAUAUUCUUUCUCGAUAUCAUAUUAAUCUUU and give only the class name.
zone 2

Each binder maps to one class by pKd. Which class for Id_ii_S2_P3E.2_K3.1_C3.2_H3.1_A3.1_F3.1_T3.2_[A10T] (ssRNA) RNA: UUUGAUUAAUAUGAUAUCGUUCUUUCUCUUGUAUAUAUUUUCUUUCUCGAUAUCAUAUUAAUCUUU ?
zone 3

Lab note: which band did Id_ii_S4_P4E.4_K4.3_C4.2_[C-2A]_H4.3_A4.1_F4.1_T4.2_[G10A] (ssRNA) RNA: UUUGACAACUGAUCGUUCUUUCUAUACACUAUUAAUUUCUUUCUCGAUCAGUUGUCUUU land in?
zone 2

The entry to classify is Ic_S2_P5E.1_K5.1_C5.1_H5.1_A5.1_[T5A]_[T6C]_[A7C]_F5.1_[T9C]_[A10G]_T5.1 (ssRNA) RNA: UUUGAUUAAUAUGAUAUCGUUCUUUCUUGUAACCUCGUUCUUUCUCGAUAUCAUAUUAAUCUUU ; which class holds it?
zone 2

Which class is correct for the following binder? Ie_S2_P3E.2_K3.1_C3.2_H3.1_[+4CTT]_A3.1_F3.1_T3.2 (ssRNA) RNA: UUUGAUUAAUAUGAUAUCGUUCUUUCUCUUGUACUUUAUAUAUUCUUUCUCGAUAUCAUAUUAAUCUUU
zone 3
